The measured values listed here are drawn from the supplement of paper PMC10567573.

B1: TRIM43 (parent)
chain: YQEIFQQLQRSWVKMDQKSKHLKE

variants of: B1; test: protein stability index of a GFP-peptide fusion (GPS, HEK-293T) (PSI 1-6); higher = more stable; settings: c terminus: a fixed tail appended;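 also: lentivirally expressed fusions sorted by FACS into six bins by GFP to DsRed ratio, PSI derived from sequencing read proportions per bin multiplied by bin number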
result.type: protein stability index
Please give only the number in your answer, with no unit.

mutant.designation: S19M
protein stability index: 2.44
//
mutant.designation: L8A
protein stability index: 2.78
//
mutant.designation: H21K
protein stability index: 2.04
//
mutant.designation: Q6D
protein stability index: 2.74
//
mutant.designation: K23D
protein stability index: 2.41

Prompt: Looking for the measured protein stability index of S11Y , can you help?
Response: 2.65

Prompt: Looking for the measured protein stability index of R10F , can you help?
Response: 1.78

Prompt: Looking for the measured protein stability index of K14M , can you help?
Response: 2.37

Prompt: Looking for the measured protein stability index of I4K , can you help?
Response: 1.87

Prompt: Looking for the measured protein stability index of E3W , can you help?
Response: 1.68

Prompt: Looking for the measured protein stability index of R10E , can you help?
Response: 2.66

Prompt: Looking for the measured protein stability index of K18D , can you help?
Response: 2.87

Prompt: Looking for the measured protein stability index of L8E , can you help?
Response: 3.06

Prompt: Looking for the measured protein stability index of H21P , can you help?
Response: 1.64
